Study the reported IC50 values for UniProt:O60674 given below; they originate from different publications.
EXPERIMENTAL ENDPOINT: IC50

MOLECULE	EXPERIMENTAL ENDPOINT	OBSERVED
COc1cnc(Nc2ccc(N3CCOC3=O)cc2)nc1-c1cnn(C(CC#N)C2CCCC2)c1 (racemic)	IC50	< 100 nM
Cc1cnc(Nc2ccc(NS(C)(=O)=O)cc2)nc1-c1cnn(C(CC#N)C2CCCC2)c1 (racemic)	IC50	< 100 nM
N#CCC(C1CCCC1)n1cc(-c2ncnc3[nH]ccc23)c(C#N)n1 (stereo not shown)	IC50	< 20 nM
N#CCC1(n2cc(-c3ncnc4[nH]ccc34)cn2)CN(C2CCN(C(=O)c3ccc(-c4ccccc4)cc3)CC2)C1	IC50	10 to 50 nM
Cc1cccc(-c2cc(C(N)=O)c3[nH]c4cc(N5CCN(Cc6ccccc6)CC5)ccc4c3c2)c1	IC50	123 nM
CC(C)OCCn1cc(-c2cc3nccn3c(-c3cnn(C(CC#N)C4CC4)c3)n2)cn1 (stereo not shown)	IC50	10 to 100 nM
CCOC(=O)N1CC2(CC(N(C)c3ncnc4[nH]ccc34)C2)C1	IC50	1000 to 10000 nM
